Target: T1, human factor X (human, UniProt P00742 41-179; P00742 183-488)
T1 construct: Zymogen used as analyte in SPR; also called FX; Human FX (MW ~58 KDa)
T1 sequence (P00742 41-179, chain 1 of 2): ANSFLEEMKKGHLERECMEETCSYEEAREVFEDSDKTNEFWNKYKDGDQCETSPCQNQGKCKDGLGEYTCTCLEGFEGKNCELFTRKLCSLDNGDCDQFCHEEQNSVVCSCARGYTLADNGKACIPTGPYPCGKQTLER
T1 sequence (P00742 183-488, chain 2 of 2): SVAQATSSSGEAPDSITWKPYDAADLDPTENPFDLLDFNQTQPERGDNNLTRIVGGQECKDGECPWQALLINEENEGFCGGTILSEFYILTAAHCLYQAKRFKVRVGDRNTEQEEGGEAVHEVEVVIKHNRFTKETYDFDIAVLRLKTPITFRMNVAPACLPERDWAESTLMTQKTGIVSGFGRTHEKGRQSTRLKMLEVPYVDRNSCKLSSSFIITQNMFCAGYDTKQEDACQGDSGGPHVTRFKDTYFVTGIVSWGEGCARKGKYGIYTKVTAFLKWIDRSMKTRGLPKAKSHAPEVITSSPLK
Assay: SPR, IgG captured on anti-human IgG Fc, human FX as analyte
Method: SPR was used to determine the binding affinity (KD) to FIX or FX respectively, the kinetic constants on-rate (kₒₙ) and off-rate (koff). Analyses was performed using a Biacore 8K (GE Healthcare) system. Monospecific antibodies (referred as ligand) which had been purified on Protein A were captured onto the anti-human IgG Fc CM4 surface at approximately 2 μg/ml. The ligands were injected for 60 seconds at 10 μl/min in all the active channels of all 8 flow channels. […]
value.type: kon (M⁻¹ s⁻¹)
Report the value in M⁻¹ s⁻¹ with no unit label.

Query: Returns the measured kon for the input binder. Input: TINA-0213.0128 (antibody, V domains shown, Monospecific IgG4PE) VH: QVQLVQSGAEVKKTGASVKVSCKASRYSFTSYYMHWVRQAPGQGLEWMGIINPKSGTTSYAQKFQGRVTMTRDTSTSTVYMELSSLRSEDTAVYYCARDGYGSSSRCLQLWGQGTLVTVSS VL: SYVLTQPPSVSVAPGETARITCGGDNIGRKSVYWYQQKSGQAPVLVIYYDSDRPSGIPERFSGSNSGNTATLTISRVEAGDEADYYCQVWDGSSDHWVFGGGTKLTVL
Result: 96900

Query: Follow-up entry: TINA-0210.0128 (antibody, V domains shown, Monospecific IgG4PE) VH: QVQLVQSGAEVKKPGASVKVSCKASRYSFTSYYMHWVRQAPGQGLEWMGIINPKSGSTSYAQKFQGRVTMTRDTSTSTVYMELNSLRSEDTAVYYCARDGYGSSSRCLQLWGQGTLVTVSS VL: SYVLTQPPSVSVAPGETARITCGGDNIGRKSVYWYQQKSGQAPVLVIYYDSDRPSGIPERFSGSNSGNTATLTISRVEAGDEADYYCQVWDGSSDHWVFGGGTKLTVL
Result: 76400

Query: Can you handle TINA-0209.0128 (antibody, V domains shown, Monospecific IgG4PE) VH: QVQLVQSGAEVQKPGASVKVSCKASRYSFTSYYLHWVRQAPGQGLEWMGIINPKTGDTSYAQKFQGRVTMTRDTSTTTVYMELSSLRSEDTAVYYCARDGYGSSARCLQLWGQGTLVTVSS VL: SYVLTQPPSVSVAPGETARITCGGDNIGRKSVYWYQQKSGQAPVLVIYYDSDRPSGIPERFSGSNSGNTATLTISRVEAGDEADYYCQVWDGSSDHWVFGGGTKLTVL next?
Result: 59000

Query: Another binder: TINA-0214.0128 (antibody, V domains shown, Monospecific IgG4PE) VH: QVQLVQSGAEVKKTGASVKVSCQASRYSFTSYYMHWVRQAPGQGLEWMGIINPKSGSTSYAQKFQGRVTMTRDTSTSTVYMELSSLRSEDTAVYYCARDGYGSSSRCLQLWGQGTLVTVSS VL: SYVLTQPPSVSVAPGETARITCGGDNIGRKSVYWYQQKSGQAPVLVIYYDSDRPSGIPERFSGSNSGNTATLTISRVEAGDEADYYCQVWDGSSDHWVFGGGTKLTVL
Result: 120000

Query: Ok, now TINA-0211.0128 (antibody, V domains shown, Monospecific IgG4PE) VH: QVQLVQSGAEVKKPGASVKVSCKASRYSFTSYYMHWVRQAPGQGLEWMGIINPKSGSTSYAQKFQGRVTMTRDTSTSTVYMDLSSLRSEDTAVYYCARDGYGSSSRCLQLWGQGTLVTVSS VL: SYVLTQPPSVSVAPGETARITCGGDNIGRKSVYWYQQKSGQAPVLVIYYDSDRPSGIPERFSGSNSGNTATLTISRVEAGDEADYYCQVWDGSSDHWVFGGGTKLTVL
Result: 65700
